# Measured target: UniProt:P04439
# Test protocol: biochemical
# Assay type: binding
# Measurement context: allele A*0301; fluorescence polarization competition; read-out: IC50 (nM), in vitro HLA binding affinity
Where a SMILES comes first, the peptide text is derived from it.
Observation type: IC50 (nM)

INSERT INTO measurements (molecule, observation_type, number) VALUES
  ('CC(C)C[C@H](NC(=O)[C@@H]1CCCN1C(=O)[C@H](CC(C)C)NC(=O)[C@H](CO)NC(=O)[C@@H](NC(=O)[C@H](Cc1ccc(O)cc1)NC(=O)[C@H](CO)NC(=O)[C@H](CO)NC(=O)[C@@H](N)CC(C)C)C(C)C)C(=O)N[C@@H](CCCCN)C(=O)O [CYRPA_161] (H-LSSYVSLPLK-OH)', 'IC50', 654),
  ('CC[C@H](C)[C@H](NC(=O)[C@@H](N)CC(C)C)C(=O)N[C@@H](CS)C(=O)NCC(=O)N[C@H](C(=O)N[C@@H](CO)C(=O)N1CCC[C@H]1C(=O)N[C@@H](Cc1ccc(O)cc1)C(=O)N[C@@H](CCCCN)C(=O)O)C(C)C [CYRPA_178] (H-LICGVSPYK-OH)', 'IC50', 419);

====

# Measured target: HLA-DRB1*0701 (Homo sapiens, UniProt P01903+P01911, A100R/A102G/A103Q/D57E/D86V/E43K/F76Y/K127E/L162R/M171V/P40G/Q125H/Q99D/R33Q/R42Y/R54Q/S133A/S66F/T210M/V115G/Y107V/Y59L/Y89S)
# Test protocol: biochemical
# Format: binding
# Measurement context: binding inhibition assay; NB = non-binder (no dose-dependent inhibition); read-out: DRB1*0701 IC50
pIC50: −log10 of the molar value. Where a SMILES comes first, the peptide text is derived from it.
Observation type: pIC50

INSERT INTO assay_data (compound, observation_type, number) VALUES
  ('CC[C@H](C)[C@H](NC(=O)[C@H](CO)NC(=O)[C@@H](NC(=O)[C@@H]1CCCN1C(=O)[C@@H](NC(=O)[C@H](CC(=O)O)NC(C)=O)C(C)C)[C@@H](C)CC)C(=O)N[C@H](C(=O)N[C@@H](CCCNC(=N)N)C(=O)N[C@@H](CC(N)=O)C(=O)N[C@@H](CC(N)=O)C(=O)N[C@@H](CCC(=O)O)C(=O)N[C@@H](CCC(N)=O)C(=O)N[C@H](C(=O)N[C@@H](CO)C(=O)N[C@@H](CCC(N)=O)C(=O)N[C@@H](CCC(=O)O)C(=O)N[C@@H](C)C(N)=O)[C@@H](C)O)[C@@H](C)CC [EBA175_014] (Ac-DVPISIIRNNEQTSQEA-NH2)', 'pIC50', 4.87),
  ('CC[C@H](C)[C@H](NC(=O)[C@H](CCSC)NC(=O)[C@H](CO)NC(=O)[C@H](C)N)C(=O)N[C@@H](CCCCN)C(=O)N[C@@H](CO)C(=O)N[C@@H](C)C(=O)N[C@@H](Cc1ccccc1)C(=O)N[C@@H](CC(C)C)C(=O)N1CCC[C@H]1C(=O)N[C@H](C(=O)NCC(=O)N[C@@H](C)C(=O)N[C@@H](Cc1ccccc1)C(=O)N[C@@H](CCCCN)C(N)=O)[C@@H](C)O [AMA1_006B] (H-ASMIKSAFLPTGAFK-NH2)', 'pIC50', 5.82);

====

# Measured target: HLA-DRB1*0701 (Homo sapiens, UniProt P01903+P01911, A100R/A102G/A103Q/D57E/D86V/E43K/F76Y/K127E/L162R/M171V/P40G/Q125H/Q99D/R33Q/R42Y/R54Q/S133A/S66F/T210M/V115G/Y107V/Y59L/Y89S)
# Test protocol: biochemical
# Assay type: binding
# Measurement context: binding inhibition assay; NB = non-binder (no dose-dependent inhibition); read-out: DRB1*0701 IC50
pIC50: −log10 of the molar value. Where no end group is shown, it is not given here.
Observation type: pIC50

INSERT INTO results (substance, observation_type, result_qualifier, number) VALUES
  ('TCLINNSSYIATTALSHPIE-NH2 [AMA1_007]', 'pIC50', '=', 7.00),
  ('Ac-DELLKRILDMSNEYSLFITSD-NH2 [RH5_011]', 'pIC50', '=', 4.86),
  ('Ac-DGLKYLFIPSHNSFIKKY-NH2 [RH5_004]', 'pIC50', '=', 5.66),
  ('Ac-EYFQTYKKNKPLTQ-NH2 [RH5_013]', 'pIC50', '<', 4.00);

====

# Measured target: HLA-A*0201 (Homo sapiens, UniProt P04439, D140Y/D185E/D98H/E176V/E277Q/G131W/G231S/I119V/I121R/I166T/I218V/L300P/L318F/N151K/N90K/P208A/P217A/Q86G/Q94H/R138H/R169H/T345S)
# Test protocol: In vitro class I HLA binding assay (fluorescence polarization competition)
# Measurement context: allele A*0201; fluorescence polarization competition; read-out: IC50 (nM), in vitro HLA binding affinity
# Method: A cell-free class I HLA binding assay that allows for in vitro quantification of peptide-HLA binding affinity in a competition format was used. […] Once the mixture has reached steady equilibrium (at 72 hours), displacement of the high binding control peptide is measured through fluorescence polarization. Binding of experimental peptides is expressed as the percent inhibition of the labeled control peptide (experimental fluorescence / control fluorescence, multiplied by 100). […]
Where a SMILES comes first, the peptide text is derived from it.
Examples of molecules with documented log10 of IC50 follow.
Observation type: log10 of IC50 (log10 of the value in nM)

INSERT INTO results (molecule, number) VALUES
  ('CC[C@H](C)[C@H](NC(=O)[C@H](CS)NC(=O)[C@@H](NC(=O)CNC(=O)[C@H](CC(N)=O)NC(=O)[C@H](CCC(=O)O)NC(=O)[C@H](CC(C)C)NC(=O)[C@@H](NC(=O)[C@@H](N)Cc1ccccc1)C(C)C)C(C)C)C(=O)O [RIPR_0745] (H-FVLENGVCI-OH)', 3.62),
  ('CC[C@H](C)[C@H](NC(=O)[C@H](CC(N)=O)NC(=O)[C@H](CC(=O)O)NC(=O)CNC(=O)[C@@H](NC(=O)[C@@H](N)Cc1ccc(O)cc1)C(C)C)C(=O)N[C@@H](CC(N)=O)C(=O)N[C@@H](CC(N)=O)C(=O)N[C@H](C(=O)O)C(C)C [CYRPA_242] (H-YVGDNINNV-OH)', 3.26),
  ('CC[C@H](C)[C@H](NC(=O)[C@H](CO)NC(=O)[C@H](C)NC(=O)[C@H](CC(=O)O)NC(=O)[C@H](CC(=O)O)NC(=O)[C@H](CC(N)=O)NC(=O)[C@H](Cc1ccc(O)cc1)NC(=O)[C@H](CCC(N)=O)NC(=O)[C@@H](N)Cc1ccccc1)C(=O)O [RIPR_0991] (H-FQYNDDASI-OH)', 2.44),
  ('CC[C@H](C)[C@H](NC(=O)[C@@H](N)Cc1ccccc1)C(=O)N[C@@H](CO)C(=O)N[C@@H](CC(=O)O)C(=O)N[C@@H](CC(=O)O)C(=O)N[C@@H](CCCCN)C(=O)N[C@@H](CC(=O)O)C(=O)N[C@@H](CO)C(=O)N[C@@H](CC(C)C)C(=O)O [AMA1_480] (H-FISDDKDSL-OH)', 5.53),
  ('CC[C@H](C)[C@H](NC(=O)[C@@H](NC(=O)[C@H](C)NC(=O)[C@H](CC(C)C)NC(=O)[C@@H](NC(=O)[C@H](C)N)C(C)C)[C@@H](C)O)C(=O)N[C@@H](CC(C)C)C(=O)N[C@@H](CCSC)C(=O)N[C@H](C(=O)O)C(C)C [AMA1_556] (H-AVLATILMV-OH)', 4.37),
  ('CC[C@H](C)[C@H](NC(=O)[C@H](CO)NC(=O)[C@H](CC(N)=O)NC(=O)[C@H](CCC(=O)O)NC(=O)[C@H](CC(N)=O)NC(=O)[C@H](CC(N)=O)NC(=O)[C@H](Cc1ccccc1)NC(=O)[C@H](Cc1ccccc1)NC(=O)[C@@H](NC(=O)[C@@H](N)Cc1ccc(O)cc1)[C@@H](C)CC)C(=O)O [CYRPA_304] (H-YIFFNNENSI-OH)', 3.45),
  ('CC[C@H](C)[C@H](NC(=O)[C@H](CCCCN)NC(=O)[C@H](Cc1c[nH]c2ccccc12)NC(=O)[C@@H](NC(=O)[C@@H](NC(=O)[C@H](CCC(N)=O)NC(=O)[C@H](CC(N)=O)NC(=O)[C@H](Cc1ccc(O)cc1)NC(=O)[C@@H](NC(=O)[C@@H](N)Cc1ccc(O)cc1)[C@@H](C)CC)[C@@H](C)CC)[C@@H](C)CC)C(=O)O [RIPR_1011] (H-YIYNQIIWKI-OH)', 3.29);
